Values were extracted from patent US20230364118A1.

Experiment: 28-day repeat-dose oral toxicokinetics
Format: in vivo, CD-1 mouse
Conditions: female, CD-1, mouse, plasma, po, 1.5 g/kg, 1.5 g/kg/dose BID (3.0 g/kg/day, NOAEL), Day 28, Female; read-out: AUC0-24
Protocol: Toxicokinetics of ribitol was evaluated as part of the 28-day toxicology study in male and female CD-1 mice. […] Toxicokinetic animals were 12/sex in the control group and 48/sex/group in the treated groups. Blood samples were collected on Day 1 and Day 28 at pre-first dose, 0.5, 2, 4, 8 (prior to second dose), 8.5, 10, and 24 h.
PROPERTY: AUC(0-t) (µg·h/mL)
Numbers only, in µg·h/mL.

Task: Report AUC(0-t) for OC[C@@H](O)[C@@H](O)[C@@H](O)CO
Output: 839
